Biological target: MIF (Homo sapiens (Human), UniProt P14174)
Sequence (P14174 2-115): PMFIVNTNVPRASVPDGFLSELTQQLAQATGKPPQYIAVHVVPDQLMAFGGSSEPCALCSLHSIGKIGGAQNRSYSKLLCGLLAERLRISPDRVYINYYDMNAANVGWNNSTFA
Test: HPP tautomerase assay (inhibition of the tautomerase activity of MIF)
Assay type: biochemical
Settings: Table 3; HPP as substrate; unit inferred; read-out: HPP Ki
Kindly apply the following: 1.0 if Ki is less than 4000 nM, 0.0 in every other case.

// query A record lists `O=C(O)c1cc(-c2cn[nH]c2)ccc1Oc1ccc(Cl)cc1` . Is its Ki below 4000 nM?
// result 0.0

// query A record lists `O=C(O)c1cc(-c2c[nH]nc2F)ccc1Oc1cccc(-c2ncccn2)c1` . Is its Ki below 4000 nM?
// result 1.0

// query A record lists `O=C(O)c1cc(-c2c[nH]nc2F)ccc1Oc1cc2c3c(cccc3c1)CC2` . Is its Ki below 4000 nM?
// result 1.0

// query A record lists `O=C(O)c1cc(-c2c[nH]nc2F)ccc1Oc1ccc2ccc(C3CC3)cc2c1` . Is its Ki below 4000 nM?
// result 1.0

// query A record lists `O=C(O)c1cc(-c2cn[nH]c2)ccc1Oc1cc2c3c(cccc3c1)C=C2` . Is its Ki below 4000 nM?
// result 1.0

// query A record lists `Cc1n[nH]cc1-c1ccc(Oc2ccc3ccccc3c2)c(C(=O)O)c1` . Is its Ki below 4000 nM?
// result 0.0

// query A record lists O=C(O)c1cc(-c2cn[nH]c2)ccc1[S+]([O-])c1ccccc1 (stereo not drawn) . Is its Ki below 4000 nM?
// result 0.0

// query A record lists `O=C(O)c1cc(-c2cn[nH]c2)ccc1Oc1ccc2ccoc2c1` . Is its Ki below 4000 nM?
// result 1.0

// query A record lists `O=C(O)c1cc(-c2cn[nH]c2)ccc1Oc1cccc2ccoc12` . Is its Ki below 4000 nM?
// result 1.0

// query A record lists `O=C(O)c1cc(-c2c[nH]nc2F)ccc1Oc1cccc(F)c1` . Is its Ki below 4000 nM?
// result 1.0

// query A record lists `O=C(O)c1cc(-c2cn[nH]c2)ccc1Oc1cccc(Cl)c1` . Is its Ki below 4000 nM?
// result 0.0

// query A record lists `O=C(O)c1cccc(Oc2ccc(-c3cn[nH]c3)cc2C(=O)O)c1` . Is its Ki below 4000 nM?
// result 0.0

// query A record lists `Cc1ccc2ccc(Oc3ccc(-c4cn[nH]c4)cc3C(=O)O)cc2c1` . Is its Ki below 4000 nM?
// result 1.0

// query A record lists `O=C(O)c1cc(-c2cn[nH]c2)ccc1Oc1ccc2occc2c1` . Is its Ki below 4000 nM?
// result 1.0

// query A record lists `O=C(O)c1cc(-c2c[nH]nc2F)ccc1Oc1cccc(-c2ccc(CCN3CCOCC3)cc2)c1` . Is its Ki below 4000 nM?
// result 1.0

// query A record lists `CC(=O)NCCc1ccc(Oc2ccc(-c3cn[nH]c3)cc2C(=O)O)cc1` . Is its Ki below 4000 nM?
// result 0.0

// query A record lists `O=C(O)c1cc(-c2c[nH]nc2F)ccc1Oc1ccc2ccoc2c1` . Is its Ki below 4000 nM?
// result 1.0

// query A record lists `Cc1ccc(-c2cn[nH]c2)cc1C(=O)O` . Is its Ki below 4000 nM?
// result 0.0

----------
Target: MIF (Homo sapiens (Human))
Test: HPP tautomerase assay (inhibition of the tautomerase activity of MIF)
Type: biochemical
PARAMETER: pKi
Keep in mind that pKi stands for -log10 of concentration in molar terms.

The compound listed as `O=C(O)c1cc(-c2cn[nH]c2)ccc1-c1ccc2ccccc2c1` has a reported pKi of 5.30

----------
Hi there, I'd appreciate the recorded Ki for every entry that follows.
Target: MIF (Homo sapiens (Human), UniProt P14174)
Test: HPP tautomerase assay (inhibition of the tautomerase activity of MIF)
Format: biochemical
Conditions: Table 3; HPP as substrate; unit inferred; read-out: HPP Ki
Give the quantity in nM, number only.

The compound listed as COc1ccc(Oc2ccc(-c3cn[nH]c3)cc2C(=O)O)cc1 [Compound 9h] has a reported Ki of 2300

The compound listed as O=C(O)c1cc(-c2c[nH]nc2F)ccc1Oc1cccc(C(F)(F)F)c1 [Compound 9w] has a reported Ki of 710

The compound listed as COc1cccc(Oc2ccc(-c3cn[nH]c3)cc2C(=O)O)c1 [Compound 9i] has a reported Ki of 2500

The compound listed as O=C(O)c1cc(-c2c[nH]nc2F)ccc1Oc1ccc2c(c1)CCCC2 [Compound 9y] has a reported Ki of 260

The compound listed as O=C(O)c1cc(-c2c[nH]nc2F)ccc1Oc1ccc2c(C3CC3)cccc2c1 [Compound 9z] has a reported Ki of 110

----------
Hi there, I'd appreciate the recorded Ki for every entry that follows.
Molecular target: MIF (Homo sapiens (Human))
Assay: HPP tautomerase assay (inhibition of the tautomerase activity of MIF)
Type: biochemical
Conditions: HPP as substrate; MIF tautomerase; read-out: Experimental inhibition constants, Ki
Give the quantity in nM, number only.

The compound listed as CCc1ccc2c(C3CC3)cc(Oc3ccc(-c4c[nH]nc4F)cc3C(=O)O)cc2c1 [Compound 8s] has a reported Ki of 66

The compound listed as NS(=O)(=O)c1cc(-c2cn[nH]c2)ccc1Oc1ccc2ccccc2c1 [Compound 8i] has a reported Ki of 5600

The compound listed as Cc1cc(C)cc(-c2cccc(Oc3ccc(-c4c[nH]nc4F)cc3C(=O)O)c2)c1 [Compound 8v] has a reported Ki of 240

The compound listed as O=C(O)c1cc(-c2cn[nH]c2)ccc1Nc1ccccc1 [Compound 7a] has a reported Ki of 12700

The compound listed as CCc1cc(Oc2ccc(-c3c[nH]nc3F)cc2C(=O)O)cc2ccccc12 [Compound 8o] has a reported Ki of 150

The compound listed as Cc1ccc(Oc2ccc(-c3cn[nH]c3)cc2C(=O)O)cc1 [Compound 8d] has a reported Ki of 7000

The compound listed as O=C(O)c1cc(-c2cn[nH]c2)ccc1-c1ccccc1 [Compound 6a] has a reported Ki of 20600

The compound listed as O=C(O)c1cc(-c2cn[nH]c2)ccc1-c1ccc2ccccc2c1 [Compound 6c] has a reported Ki of 5400

The compound listed as O=C(O)c1cc(-c2cn[nH]c2)ccc1Oc1ccc2ccccc2c1 [Compound 8g] has a reported Ki of 4300

The compound listed as O=C(O)c1cc(-c2cn[nH]c2)ccc1OC1C2CC3CC(C2)CC1C3 (stereo not drawn) [Compound 8k] has a reported Ki of 2600

The compound listed as CS(=O)(=O)c1cc(-c2cn[nH]c2)ccc1Oc1ccc2ccccc2c1 [Compound 8h] has a reported Ki of 6400

The compound listed as O=C(O)c1cc(-c2cn[nH]c2)ccc1Oc1cc2ccccc2c2ccccc12 [Compound 8j] has a reported Ki of 2300

The compound listed as O=C(O)c1cc(-c2cn[nH]c2)ccc1Oc1cc2c3c(cccc3c1)CC2 [Compound 8l] has a reported Ki of 1100

The compound listed as O=C(O)c1cc(-c2cn[nH]c2)ccc1-c1cccc2ccccc12 [Compound 6b] has a reported Ki of 19500

The compound listed as CCOc1ccc(-c2cccc(Oc3ccc(-c4c[nH]nc4F)cc3C(=O)O)c2)cc1 [Compound 8w] has a reported Ki of 75

The compound listed as Cc1ccccc1Oc1ccc(-c2cn[nH]c2)cc1C(=O)O [Compound 8b] has a reported Ki of 4300

The compound listed as CCc1cccc2cc(Oc3ccc(-c4c[nH]nc4F)cc3C(=O)O)ccc12 [Compound 8p] has a reported Ki of 170

The compound listed as CN(c1ccc2ccccc2c1)c1ccc(-c2cn[nH]c2)cc1C(=O)O [Compound 7b] has a reported Ki of 4200

The compound listed as Cc1cccc(Oc2ccc(-c3cn[nH]c3)cc2C(=O)O)c1 [Compound 8c] has a reported Ki of 3800

The compound listed as O=C(O)c1cc(-c2cn[nH]c2)ccc1Oc1cccc(F)c1 [Compound 8e] has a reported Ki of 1700

The compound listed as O=C(O)c1cc(-c2c[nH]nc2F)ccc1Oc1ccc(-c2ccccc2)cc1 [Compound 8t] has a reported Ki of 350

The compound listed as O=C(O)c1cc(-c2c[nH]nc2F)ccc1Oc1cc(C2CC2)c2ccccc2c1 [Compound 8r] has a reported Ki of 110

The compound listed as O=C(O)c1cc(-c2cn[nH]c2)ccc1Oc1ccccc1 [Compound 8a] has a reported Ki of 6800

The compound listed as O=C(O)c1cc(-c2c[nH]nc2F)ccc1Oc1cccc2ccccc12 [Compound 8m] has a reported Ki of 480

The compound listed as O=C(O)c1cc(-c2c[nH]nc2F)ccc1Oc1cccc(-c2ccccc2)c1 [Compound 8u] has a reported Ki of 130

The compound listed as O=C(O)c1cc(-c2cn[nH]c2)ccc1Oc1ccc(F)cc1 [Compound 8f] has a reported Ki of 4600

The compound listed as CCc1ccc2ccc(Oc3ccc(-c4c[nH]nc4F)cc3C(=O)O)cc2c1 [Compound 8q] has a reported Ki of 140
